System: MS2 coat protein
Assay: apparent KD of MS2 coat protein, switch OFF state (with FMN for OFF switches, without FMN for ON switches); designed switch direction (-1 OFF switch, 1 ON switch): 1; higher = weaker reporter binding
Details: FMN input: 0 or 200 uM; Eterna round: R93 (includes R88 designs)
Answer Condition not met if apparent KD of MS2 coat protein is under 30 nM, and Condition met if it is 30 nM or more.

Consider the worked cases shown below.
AACAAUCUAUCUGAGGAUAUCAUGACAAAGACAUGAGGAUCACCCAUGUGCAGGAAAACUGCUUAUGAGAAGGCAGAUAGAUUGA [SS2: 1113] : Condition not met
AACAAUCUAUCUGAGGAUAUCAUUAAAAAGACAUGAGGAUCACCCAUGUAGCAGGAAACUGCAUAUGAGAAGGCAGAUAGAUUGA [SS2: 1123] : Condition not met
AAAAACACGGUGCAGGAUAUAUUAAUAGUCACAUGAGGAUCACCCAUGUUCAUUUAUAUGAACGAGUAGAAGGGCGGUGAAAAAA [Mat - Same state - Malcolm Mod - D112] : Condition met
AACAAUCUAUCUGAGGAUAUGUGUCGAAAGACAUGAGGAUCACCCAUGUGAAAACAUGAAAAAUCACAGAAGGCAGAUAGAUUGA [SS2: 1143] : Condition met

Next, consider the following sequence.
Does the sequence AACUACAUUAUGAAGGAUAUCCGCGUCUAGACAUGAGGAUCACCCAUGUAUACUUGGAUCAUGCAGGAGAAGGUCAAGGGUGAUU [JR_SS002_Sub1209] have recorded apparent KD of MS2 coat protein that is 30 nM or more?
Condition met
